# Test system: 786-0 renal
# Assay Summary: NCI-60 one-dose screen, 48 h (100 = growth as untreated, 0 = no growth, -100 = all killed)
# Conditions: 10 µM unless noted
# Experimental: Cells are grown in 96 well plates and exposed to the test compound for 48 hours. Compounds are tested at a single concentration, which is 10^-5 M for most compounds. The reported endpoint is percent growth (GI% or GIPRCNT), where numbers from 0 - 100% represent growth inhibition, and numbers from -100% - 0 represent cell death. For example, a value of 40 represents 60% growth inhibition. A value of 0 means no net growth occurred over the course of the experiment. […]
This is part of a sample that, as a whole, favours compounds with a hit. Of some 83,000 tested, about 20% had one in any assay.
Property Label: growth (%)
Report the value in % with no unit label.

- Compound: "C[C@H]1[C@@H]2[C@H]3CC[C@@H]4[C@@]5(C)Cc6c([nH]c7ccccc67)C(C)(C)[C@@H]5CC[C@@]4(C)[C@]3(C)CC[C@]23CO[C@]1(C)[C@@H](C(=O)/C=C/c1ccccn1)C3"
  Assayed Target: "786-0 renal"
  growth / %: 106
- Compound: "CCSc1sc(-c2ccc(C)cc2)nc1[P+](c1ccccc1)(c1ccccc1)c1ccccc1"
  Assayed Target: "786-0 renal"
  growth / %: 5.86
- Compound: "NC1=C(C/C(N)=N\\O)C(c2ccccc2Cl)c2c(ccc3ccccc23)O1 (centres undefined)"
  Assayed Target: "786-0 renal"
  growth / %: 93.4
- Compound: "Cc1nn(-c2ccc(Br)cc2)c2nc3[nH]c(=O)[nH]c(=O)c3nc12"
  Assayed Target: "786-0 renal"
  growth / %: 100
- Compound: "NC(=O)NCC1CCCCC1"
  Assayed Target: "786-0 renal"
  growth / %: 101
- Compound: "CCCCN1CCCCn2c1nc1c2c(=O)n(C)c(=O)n1C"
  Assayed Target: "786-0 renal"
  growth / %: 100

In: Identify growth associated with the compound Cc1ccc(S(=O)(=O)Nc2ccc(-c3cc(-c4cccc(F)c4)c(C#N)c(=O)[nH]3)cc2)cc1
Out: 102

In: Identify growth associated with the compound Cc1cc(N(CCCNc2ccnc3cc(Cl)ccc23)Cc2ccco2)nc(N2CCOCC2)n1
Out: 68

In: Identify growth associated with the compound Cc1csc(Nc2nc(-c3cccc(Br)c3)nc(C(Cl)(Cl)Cl)n2)n1
Out: 75.2

* * *

# Test system: MDA-MB-435 melanoma
# Assay Summary: NCI-60 one-dose screen, 48 h
# Conditions: 10 µM unless noted
This is part of a sample that, as a whole, favours compounds with a hit. Of some 83,000 tested, about 20% had one in any assay. The source made the active and inactive calls. Rule for the calls: active = growth percent below 10; inactive = the rest.
Allowed answers: active, inactive

- Smiles String: "COc1cnc2c(c1)C(=O)c1c-2n(CCCNC(C)C)c(=O)c2cc([N+](=O)[O-])ccc12"
  Assayed Target: "MDA-MB-435 melanoma"
  Label Class: "active"
- Smiles String: "Fc1ccc(Nc2nnc(-c3ccc(Cl)cc3)o2)cc1"
  Assayed Target: "MDA-MB-435 melanoma"
  Label Class: "inactive"

Let us examine a further case.
In: For this compound, state the assay outcome: COc1ccc2c(c1)C/C(=C\c1cc(-c3ccc4c(c3)OCO4)n[nH]1)C2=O
Out: inactive

* * *

# Tested on: KM12 colon
# Assay Summary: NCI-60 one-dose screen, 48 h
# Conditions: 10 µM unless noted
About 83,000 compounds went through this panel and 20% of them were active in at least one assay; those are over-represented in the sample as a whole. Active and inactive are the calls of the source. Rule for the calls: active = growth percent below 10; inactive = the rest.
Allowed answers: active, inactive

Use these answered entries as a reference point.
- Compound: "CN1CCN(CCOc2ccc(-c3cnc4c(-c5ccccc5F)cnn4c3)cc2)CC1"
  Assayed Target: "KM12 colon"
  Label Class: "active"
- Compound: "N#CC1=C(N)Oc2c(c(N)nn2-c2ccccc2)C1c1ccc(Cl)cc1Cl (centres undefined)"
  Assayed Target: "KM12 colon"
  Label Class: "inactive"
- Compound: "C/C(=N/NC(N)=S)C(=O)O"
  Assayed Target: "KM12 colon"
  Label Class: "inactive"
- Compound: "Cc1ccc(S(=O)(=O)Nc2ccc(-c3cc(-c4cccc(F)c4)c(C#N)c(=O)[nH]3)cc2)cc1"
  Assayed Target: "KM12 colon"
  Label Class: "inactive"
- Compound: "O=C1CCC/C=C\\C[C@H]2C=C(Cl)C(=O)/C2=C/C[C@H](CCCCC(F)(F)F)OC(=O)CCC/C=C\\C[C@H]2C=C(Cl)C(=O)/C2=C/C[C@H](CCCCC(F)(F)F)O1"
  Assayed Target: "KM12 colon"
  Label Class: "active"
- Compound: "C=C(C)[C@@H]1CC[C@]2(C(=O)O)CC[C@]3(C)[C@H](CC[C@@H]4[C@@]5(C)C/C(=C/c6cccc(I)c6)C(=O)C(C)(C)[C@@H]5CC[C@]43C)[C@@H]12"
  Assayed Target: "KM12 colon"
  Label Class: "inactive"
- Compound: "COc1ccc(C2CC(=O)c3c(nc4ccc(Cl)cc4c3N)C2)cc1 (centres undefined)"
  Assayed Target: "KM12 colon"
  Label Class: "inactive"
- Compound: "Oc1ccccc1/C=N\\NC(=S)Nc1ccc(F)cc1"
  Assayed Target: "KM12 colon"
  Label Class: "inactive"

Let us examine a further case.
In: For this compound, state the assay outcome: COc1ccc(/C=C/C(=O)NCC(C)O)cc1 (centres undefined)
Out: inactive

* * *

# System: NCI-H23 lung
# Assay Summary: NCI-60 one-dose screen, 48 h
# Conditions: 10 µM unless noted
The panel holds about 83,000 compounds, 20% with a hit somewhere; the sample as a whole holds those more often. Calls of active or inactive are those of the source. Rule for the calls: active = growth percent below 10; inactive = the rest.
Allowed answers: 1.0 (active), 0.0 (inactive)

Use these answered entries as a reference point.
- Compound: "C=C(C)[C@@H]1CC[C@]2(/C=N/Nc3ccncc3)CC[C@]3(C)[C@H](CC[C@@H]4[C@@]5(C)CCCNC(C)(C)[C@@H]5CC[C@]43C)[C@@H]12"
  Assayed Target: "NCI-H23 lung"
  Label Class: 0.0
- Compound: "NCCn1cc(-c2nc(-c3c[nH]c4ncccc34)cs2)c2ccccc21"
  Assayed Target: "NCI-H23 lung"
  Label Class: 0.0

Let us examine a further case.
In: For this compound, state the assay outcome: COc1cc2ncnc(Nc3ccc(OCc4cccc(F)c4)c(Cl)c3)c2cc1NC(=O)C1CCCC1
Out: 0.0

* * *

# Tested on: UO-31 renal
# Assay Summary: NCI-60 one-dose screen, 48 h (100 = growth as untreated, 0 = no growth, -100 = all killed)
# Conditions: 10 µM unless noted
Compounds without any hit were thinned out: in the full panel of roughly 83,000, 20% have a hit.
Label label 1 when growth < 40%; otherwise label 0.

- Compound: "COc1ccc(-c2cc(/C=C/C(=O)c3ccc(OC)c(OC)c3)[nH]n2)cc1"
  Label Class: "label 1"
- Compound: "CC(=O)Cc1nsc(NC(=O)c2ccoc2COc2ccccc2)n1"
  Label Class: "label 0"
- Compound: "Cc1csc(-c2ccc3c(c2)COC3(CCCN(C)C)c2ccc(F)cc2)c1 (stereo unspecified)"
  Label Class: "label 0"
- Compound: "COC(=O)[C@@H]1[C@H]2C[C@H]3c4[nH]c5cc(OC)ccc5c4CCN3C[C@@H]2C[C@H](OC(=O)/C=C/c2ccnc(OC)c2)[C@H]1OC"
  Label Class: "label 0"
- Compound: "CC1(C)NC2=C(C(Nc3cccnc3)N1)C(c1ccc([N+](=O)[O-])cc1)C(C(=O)c1ccc(N=[N+]=[N-])cc1)O2 (stereo unspecified)"
  Label Class: "label 0"
- Compound: "COc1ccc2c(c1)C(Br)=C(CCO)C2c1ccccc1 (stereo unspecified)"
  Label Class: "label 0"
- Compound: "O=C(CCCCCn1c2ccccc2c2c3c(c4c5ccccc5[nH]c4c21)C(=O)N(O)C3=O)N1CCOCC1"
  Label Class: "label 1"
- Compound: "CC1(C)CC[C@]2(C(=O)NCCNCCN)CC[C@]3(C)C(=CC[C@@H]4[C@@]5(C)CCC(=O)C(C)(C)[C@@H]5CC[C@]43C)[C@@H]2C1"
  Label Class: "label 0"
- Compound: "COc1cc(/C=C/c2cc(/C=C/c3ccc(O)c(OC)c3)n(-c3ccccc3)c(=O)n2)ccc1O"
  Label Class: "label 0"
- Compound: "Nc1ccc(Cl)cn1"
  Label Class: "label 0"

In: Does this compound meet the criterion growth < 40%? Cc1ccncc1C(=O)O
Out: label 0

In: Does this compound meet the criterion growth < 40%? Brc1ccc2c(c1)c(-c1nc(-c3c[nH]c4ncccc34)cs1)cn2CCCN1CCCCC1
Out: label 1

In: Does this compound meet the criterion growth < 40%? C/C(=N\Nc1cc(C)c2ccccc2n1)c1ccccn1
Out: label 1

In: Does this compound meet the criterion growth < 40%? CC1(C)NCCC[C@]2(C)[C@H]3CC[C@@H]4[C@H]5[C@H](C(=O)/C=C/c6ccccn6)CC[C@]5(CO)CC[C@@]4(C)[C@]3(C)CC[C@@H]12
Out: label 0
